Consider the following Ki data for Human σ1 receptor (Homo sapiens, UniProt Q99720), collected from several reports.

# input # Ki lookup, item `CN1Cc2ccccc2CC12CCN(Cc1ccccc1)CC2`
# output < 0.1 µM

# input Please report the recorded Ki for CCCC(c1nc2c(F)cc(Br)cc2c(=O)n1CC)N1CCCNCC1 (centres unmarked) .
# output > 1 µM

# input Form field: reported Ki of `CCC[C@H](c1nc2ccc(F)cc2c(=O)n1CCC(C)C)N1CCCN(C)CC1`
# output < 0.5 µM

# input Look at this compound and give its reported Ki. `CCC[C@@H](c1nc2cc(Cl)c(Cl)cc2c(=O)n1CC)N1CCN(C)C[C@H](C)C1`
# output > 1 µM

# input Tell me the measured Ki of `Cc1nn2c([C@@H]3CCCN(Cc4ccc(Cl)cc4)C3)ccnc2c1CN(C)CC1CC1` , please.
# output < 0.5 µM

# input Need Ki, item Cc1nn2c(C3CCCN(Cc4ccc(Cl)cc4)C3)ccnc2c1CN (centres unmarked)
# output 0.5 to 1 µM

# input Can you share its Ki? I mean this compound: `CC[C@@H]1CCn2c(nc3ccc(Br)cc3c2=O)[C@H]1N1CCCN(C)CC1`
# output 0.5 to 1 µM

# input // Ki lookup, key: `CCC[C@H](c1nc2cc(Cl)c(Cl)cc2c(=O)n1CC)N1CCNC[C@@H](C)C1`
# output > 1 µM

# input What Ki value was documented for this compound, CCCC(c1nc2ccc(Br)cc2c(=O)n1CC)N1CCCN(CCc2ccccc2)CC1 (centres unmarked) ?
# output < 0.5 µM

# input What does the record list as Ki for `CCC[C@H](c1nc2cc(F)c(Cl)cc2c(=O)n1CC)N1CCNC[C@@H](C)C1` ?
# output 0.5 to 1 µM

# input Record request: Ki value, item CCCC(c1nc2cccc(Br)c2c(=O)n1CC)N1CCCN(C)CC1 (centres unmarked)
# output < 0.5 µM

# input Query (compound): `CCN1C[C@H](C2CCN(Cc3ccc(F)cc3)CC2)O[C@@H](C)C1=O` ; field requested: Ki
# output ≥ 0.5 µM

# input Would you kindly share the measured Ki for `CCN1C[C@]2(CC[C@H](N(C)Cc3ccccc3)CC2)OCC1=O` ?
# output < 0.5 µM

# input Which Ki is listed for `CCC[C@H](c1nc2cc(Cl)c(Cl)cc2c(=O)n1CC)N1CCNC[C@H](C)C1` ?
# output > 1 µM

# input Entry CCNCc1c(C)nn2c(C3CCCN(Cc4ccc(Cl)cc4)C3)ccnc12 (centres unmarked) has what Ki?
# output < 0.5 µM

# input Given the entry CCCC(c1nc2c(C)cc(Br)cc2c(=O)n1CC)N1CCCN(C)CC1 (centres unmarked) , report its measured Ki.
# output 0.5 to 1 µM

# input What Ki value was documented for this compound, Cc1nn2c(C3CCCN(Cc4ccc(Cl)cc4)C3)ccnc2c1-c1cccc(C(=O)N(C)C)c1 (centres unmarked) ?
# output > 1 µM

# input Could you share which Ki value was measured for `CCN1C[C@H](C2CCN(Cc3ccc(F)cc3)CC2)O[C@H](C)C1=O` ?
# output ≥ 0.5 µM

# input Fill blank: measured Ki of the compound CCCC(c1nc2ccc(F)cc2c(=O)n1CC(C)C)N1CCCN(C)CC1 (centres unmarked) is ____.
# output < 0.5 µM

# input # lookup: Ki of `CCC[C@H](c1nc2ccc(Br)cc2c(=O)n1CC)N1CCN(C)C[C@@H](C)C1`
# output > 1 µM

# input Endpoint output: Ki of c1ccc(CN2CCCC3(C2)CN(Cc2ccccc2)CC2(CC2)O3)cc1 (centres unmarked) . Value?
# output < 0.1 µM

# input Quick check: Ki of CCCC(c1nc2c(Cl)cc(F)cc2c(=O)n1CC)N1CCCN(C)CC1 (centres unmarked) ?
# output > 1 µM

# input Data request, read-out Ki, for Cc1nn2c(C3CCCN(Cc4ccc(Cl)cc4)C3)ccnc2c1-c1ccnc(OCC2CC2)c1 (centres unmarked)
# output > 1 µM

# input Reported Ki for `CCC[C@H](c1nc2ccc(F)cc2c(=O)n1C(C)C)N1CCCN(CC)CC1` : what is it?
# output < 0.5 µM

# input // Ki lookup, key: COc1ccc(CN2CC(C3CCN(Cc4ccccc4)CC3)OCC2=O)cc1 (centres unmarked)
# output < 0.5 µM

# input # Ki lookup, item CCCC(c1nc2ncc(Br)cc2c(=O)n1CC)N1CCCNCC1 (centres unmarked)
# output > 1 µM

# input // Ki lookup, key: `CCC[C@@H](c1nc2ncc(F)cc2c(=O)n1CC)N1CCCN(C)CC1`
# output > 1 µM

# input Looking for the measured Ki of Cc1cnccc1-c1c(C)nn2c(C3CCCN(Cc4ccccc4)C3)ccnc12 (centres unmarked) , can you help?
# output > 1 µM

# input Look up Ki: CCN1CC(C2CCN(Cc3ccccc3)CC2)OC2(CC2)C1=O (centres unmarked)
# output < 0.1 µM

# input Which Ki reading was recorded for the compound Cc1cnc2c(-c3ccncc3)c(C)nn2c1C1CCCN(Cc2ccccc2)C1 (centres unmarked) ?
# output > 1 µM

# input Item under review: CCOc1ccc(-c2cc3nccc(C4CCCN(Cc5ccccc5)C4)n3n2)cc1 (centres unmarked) . Reported Ki?
# output > 1 µM

# input Query: Ki; subject: Cc1nn2c(C3CCCN(Cc4ccc(Cl)cc4)C3)ccnc2c1CNCCc1ccccc1 (centres unmarked)
# output < 0.5 µM

# input Dear colleague, I am looking for the recorded Ki of the following compound: CCCC(c1nc2cc(Br)c(F)cc2c(=O)n1CCC)N1CCCN(C)CC1 (centres unmarked)
# output 0.5 to 1 µM

# input For the compound shown here, `Cc1nn2c([C@H]3CCCN(Cc4ccc(Cl)cc4)C3)ccnc2c1CNCC1CCOCC1` , give the reported Ki.
# output < 0.5 µM

# input For the compound shown here, Cc1nn2c(C3CCCN(Cc4ccccc4)C3)ccnc2c1N (centres unmarked) , give the reported Ki.
# output > 1 µM
